Reported cytotoxicity at 10 µM is given for each of the following compounds.
- assay_method_text: Toxicity liver stage against HepG2, at 10uM
- Type: cell-based
- Design: test concentration 10 uM, cell line HepG2-A16-CD81EGFP
- setup_conditions: human, HepG2-A16-CD81EGFP cells; read-out: INHIBITION
# number only, unit % dropped from output

Answered examples (3):
INSERT INTO measurements (compound, readout_unit, result_number) VALUES
  ('Cc1ccccc1OCCC(=O)N(C)Cc1c(C)noc1C', '%', -8.73),
  ('Cc1cnn(CCNCC(O)COc2ccc(Cl)cc2)c1 (stereo unspecified)', '%', -12.6),
  ('CN(C)C(=O)c1ccc(C(C(=O)O)N(C)Cc2ccccc2Cl)cc1 (stereo unspecified)', '%', -54.6);

In plain terms, O=C(Cc1ccccc1)NCc1ncc(-c2ccccc2C(=O)O)cn1 has a documented cytotoxicity at 10 µM of -1.89

Memo: Cc1nc(C)c(CN2CCC(N(C)Cc3noc(C4CC4)n3)C2)s1 (stereo unspecified) , reported cytotoxicity at 10 µM: -20

// field: cytotoxicity at 10 µM; key: O=C(NCCNS(=O)(=O)c1cc(F)cc(F)c1)c1ccoc1 ; value = -1.33

* * *

The compounds listed here are annotated with their cytotoxicity at 10 µM.
- assay_method_text: Toxicity liver stage against HepG2, at 10uM
- Format: cell-based
- Design: test concentration 10 uM, cell line HepG2-A16-CD81EGFP
- setup_conditions: human, HepG2-A16-CD81EGFP cells; read-out: INHIBITION
Please give a number only; it is taken to be in %.

INSERT INTO assay_data (compound, recorded_endpoint, result_number) VALUES
  ('CN(Cc1ncc(C(C)(C)C)o1)C1CCCN(c2cccnn2)C1 (configuration not stated)', 'cytotoxicity at 10 µM', -16.1),
  ('CCn1ccnc1CN1CCN(CC(=O)NC(C)(C#N)C2CC2)CC1 (configuration not stated)', 'cytotoxicity at 10 µM', -8.24),
  ('CC(NC(=O)c1ccoc1)C(=O)N(C)Cc1ccsc1 (configuration not stated)', 'cytotoxicity at 10 µM', -1.77);

Lab book: cytotoxicity at 10 µM of Cn1cc(N2CC3(CCN(CC4CC4)C3)CC2=O)cn1 (configuration not stated) noted as 1.84

Lab book: cytotoxicity at 10 µM of Cc1n[nH]c(C)c1-c1nccnc1CC1CCCN(C)C1 (configuration not stated) noted as -18.3

* * *

- assay_method_text: Toxicity liver stage against HepG2, at 10uM
- Format: cell-based
- Set-up: test concentration 10 uM, cell line HepG2-A16-CD81EGFP
- setup_conditions: human, HepG2-A16-CD81EGFP cells; read-out: INHIBITION
recorded_endpoint: cytotoxicity at 10 µM (%)
Return type: number; implicit unit %.

Sample answers from the record:
INSERT INTO assay_data (molecule, recorded_endpoint, result_number) VALUES
  ('CCCN(CC1COc2ccccc2O1)C(=O)C1=NN(C)C(=O)CC1 (stereo not drawn)', 'cytotoxicity at 10 µM', -41),
  ('Cc1ccc(-c2cn(C3CCN(C(=O)[C@H]4CCCO4)CC3)nn2)cc1', 'cytotoxicity at 10 µM', -8.93),
  ('CC(C)[C@H](N)C(=O)N1CCCC(C2=Nc3ccccc3S(=O)(=O)N2)C1 (stereo partly drawn)', 'cytotoxicity at 10 µM', 7.96),
  ('CN(C)c1ncccc1CNC(=O)NCc1ccc(Cl)s1', 'cytotoxicity at 10 µM', 9.21),
  ('CSCC(=O)N[C@H]1CC[C@H](Nc2nccc(-c3cccnc3)n2)C1', 'cytotoxicity at 10 µM', 9.87);

For record Cc1cc(Br)oc1C(=O)N1CCCN(CC(N)=O)CC1 the listed cytotoxicity at 10 µM is 0.71

COC(=O)C(C)(C)C(C)(C)NC(=O)Nc1nnc(-c2ccccn2)s1 yielded cytotoxicity at 10 µM of 9.15

The molecule listed as CS(=O)(=O)c1ccc(CNC(=O)N2CCC(C(N)=O)C2)cc1 (stereo not drawn) has a reported cytotoxicity at 10 µM of -8.03

* * *

- assay_method_text: Toxicity liver stage against HepG2, at 10uM
- Format: cell-based
- Design: test concentration 10 uM, cell line HepG2-A16-CD81EGFP
- setup_conditions: human, HepG2-A16-CD81EGFP cells; read-out: INHIBITION
recorded_endpoint: cytotoxicity at 10 µM (%)
Express the result in % but write the number alone.

Solved entries (count: 2):
INSERT INTO results (compound, result_number) VALUES
  ('CNS(=O)(=O)c1ccc(CNC(=O)NCC2CCC2)cc1', 6.26),
  ('CCc1c(C)nc2n(c1=O)CC(C(=O)Nc1sccc1C(=O)OC)CS2 (stereo unspecified)', 3.24);

The reported value for CC(C)(C)c1n[nH]cc1CNC1CCC(O)CC1 (stereo unspecified) in terms of cytotoxicity at 10 µM is 2.33

Note to self: cytotoxicity at 10 µM recorded for CC(C(N)=O)N1CCN(c2ncc(Br)cn2)CC1 (stereo unspecified) was 3.23

Form field cytotoxicity at 10 µM, entry CC(=O)NCCNC(=O)c1cnc(-c2ccc(C)cc2C)s1 : -7.95

Given item COCCCN(C)[C@@H]1c2ccccc2C2(CCNCC2)[C@H]1O , the value recorded as its cytotoxicity at 10 µM is 1.73

* * *

- assay_method_text: Toxicity liver stage against HepG2, at 10uM
- Assay type: cell-based
- Set-up: test concentration 10 uM, cell line HepG2-A16-CD81EGFP
- setup_conditions: human, HepG2-A16-CD81EGFP cells; read-out: INHIBITION
Catalogue of cytotoxicity at 10 µM readings, one per entry.
I only need the number, in %, no unit after it.

Guide cases for cytotoxicity at 10 µM, answers given:
INSERT INTO measurements (molecule, result_number) VALUES
  ('CCCN(CC)Cn1ncc2cn(-c3ccccc3)nc2c1=O', 1.44),
  ('CC(C)CC(NCc1ccsc1)c1ccccn1 (configuration not stated)', -2.56),
  ('Cc1cc(N2CCC(O)(CN(C)C)C2)c2cc3c(cc2n1)OCO3 (configuration not stated)', 45.4),
  ('CCS(=O)(=O)CC(=O)NC(C)c1ccc(OCCC(C)C)cc1 (configuration not stated)', 5.61),
  ('CN(C)C(=O)N1C[C@H]2CN(Cc3cccc(F)c3)C(=O)[C@H]2C1', 4.61);

Looking up Cc1noc(C)c1CCC(=O)Nc1ccn(C)n1 , I see its cytotoxicity at 10 µM listed as -2.4

Looking up CCOc1ncccc1CNCc1c(C)nn(C)c1N(C)C , I found its cytotoxicity at 10 µM recorded as -1.35

Looking up CCn1cc2c(n1)C(COC)CN(Cc1ccccn1)C2 (configuration not stated) , I see its cytotoxicity at 10 µM listed as -3.73

Entry O=C(CCC(=O)c1ccccc1)NC1(C(=O)NCC2CC2)CCCC1 , cytotoxicity at 10 µM reported as 2.26

* * *

Each record here notes measured cytotoxicity at 10 µM.
- assay_method_text: Toxicity liver stage against HepG2, at 10uM
- Type: cell-based
- Set-up: test concentration 10 uM, cell line HepG2-A16-CD81EGFP
- setup_conditions: human, HepG2-A16-CD81EGFP cells; read-out: INHIBITION
Numbers only; they are read as %.

Field: example entries. Status: answers known.
INSERT INTO measurements (molecule, recorded_endpoint, readout_unit, result_number) VALUES
  ('CC(=O)NCc1cc2n(n1)CCN(Cc1cccc(Cl)c1Cl)C2', 'cytotoxicity at 10 µM', '%', -12.8),
  ('CN(Cc1cc(F)cc2cccnc12)CC1CCN(CCO)CC1', 'cytotoxicity at 10 µM', '%', 1.9),
  ('CC(N1CCN(C(=O)NCc2cccc(C#N)c2)CC1)C(F)(F)F (configuration not stated)', 'cytotoxicity at 10 µM', '%', 6.31),
  ('COCCN1C=NC2(CCC(C(=O)Nc3ccc(C)cc3)CC2)C1=O (configuration not stated)', 'cytotoxicity at 10 µM', '%', 15.1),
  ('O=C(Cc1ccc2c(c1)OCO2)N1CCCN(c2ccccc2)CC1', 'cytotoxicity at 10 µM', '%', -2.84),
  ('CN(C)c1cc(C(=O)N2CCCC(n3cccn3)C2)ccn1 (configuration not stated)', 'cytotoxicity at 10 µM', '%', -0.781),
  ('CCOC(=O)C1CN(C(=O)COC)Cc2ncn(CC)c21 (configuration not stated)', 'cytotoxicity at 10 µM', '%', 6.01),
  ('NCC1(c2cccc(C(F)(F)F)c2)CCCC1', 'cytotoxicity at 10 µM', '%', -5.7),
  ('CC(C)NC(=O)N1CCN(C(=O)C(C)C)CC2(CC(=O)N(C)C2)C1 (configuration not stated)', 'cytotoxicity at 10 µM', '%', -0.704),
  ('CC(C)NC(=O)c1ccc2c(c1)C1(CCN(C(C)C)CC1)C(=O)N2', 'cytotoxicity at 10 µM', '%', -7.47);

Quick note, cytotoxicity at 10 µM for N#Cc1c(Cl)nsc1NCC1(c2ccccc2)CCC1 landed at 26.7

Record COc1cc(NC(=O)NC2CCCC2)ccc1N1CCOC1=O , field cytotoxicity at 10 µM: -7.09
